Data provenance is ChEMBL document CHEMBL4196169.

- METHOD_NOTES: Half life in mouse at 1 mg/kg, iv
- Format: ADME, organism-based
- TEST_SETTINGS: in vivo
For each record, write down the corresponding half-life.
Report only the number, with the unit h understood.

**Query** Which value of half-life has been reported for C[C@@]1(O)CCN(c2ncc(C(=O)Nc3ccc(OC(F)(F)F)cc3)cc2-c2ccn[nH]2)C1 in the records?
**Result** 1

**Query** Which value of half-life has been reported for O=C(Nc1ccc(OC(F)(F)F)cc1)c1cccc(-c2cncnc2)c1 in the records?
**Result** 0.2

**Query** Which value of half-life has been reported for O=C(Nc1ccc(OC(F)(F)Cl)cc1)c1cnc(N2CC[C@@H](O)C2)c(-c2ccn[nH]2)c1 [ASCIMINIB] in the records?
**Result** 1.1

**Query** Which value of half-life has been reported for O=C(Nc1ccc(OC(F)(F)F)cc1)c1cnc(N2CCC(O)C2)c(-c2cncnc2)c1 (single isomer, unassigned; 7) in the records?
**Result** 2

* * *

For each record, write down the corresponding AUC/dose.
- System: Mus musculus
- METHOD_NOTES: Dose normalized AUC in mouse at 1 mg/kg, iv
- Format: ADME, organism-based
- TEST_SETTINGS: in vivo
Report only the number, with the unit µmol·h/L understood.

**Query** Which value of AUC/dose has been reported for C[C@@]1(O)CCN(c2ncc(C(=O)Nc3ccc(OC(F)(F)F)cc3)cc2-c2ccn[nH]2)C1 in the records?
**Result** 3.3

**Query** Which value of AUC/dose has been reported for O=C(Nc1ccc(OC(F)(F)F)cc1)c1cnc(N2CCC(O)C2)c(-c2cncnc2)c1 (single isomer, unassigned; 7) in the records?
**Result** 4.2

**Query** Which value of AUC/dose has been reported for O=C(Nc1ccc(OC(F)(F)Cl)cc1)c1cnc(N2CC[C@@H](O)C2)c(-c2ccn[nH]2)c1 in the records?
**Result** 3.2

**Query** Which value of AUC/dose has been reported for O=C(Nc1ccc(OC(F)(F)F)cc1)c1cccc(-c2cncnc2)c1 in the records?
**Result** 0.61

* * *

- METHOD_NOTES: Solubility of the compound in SGF at pH 2 compound administered as solid dispersion measured after 120 mins
- Format: physicochemical
PROPERTY_NAME: solubility at 2 h (µg/mL)
Report only the number, with the unit µg/mL understood.

**Query** Which value of solubility at 2 h has been reported for O=C(Nc1ccc(OC(F)(F)Cl)cc1)c1cnc(N2CC[C@@H](O)C2)c(-c2ccn[nH]2)c1 in the records?
**Result** 3000

* * *

- METHOD_NOTES: Intrinsic clearance in rat liver microsomess
- Type: ADME, microsome
- TEST_SETTINGS: liver microsomes, read-out: CLH
PROPERTY_NAME: CLint scaled (mL/min/kg)
Report only the number, with the unit mL/min/kg understood.

**Query** Which value of CLint scaled has been reported for O=C(Nc1ccc(OC(F)(F)F)cc1)c1cnc(N2CCC(O)C2)c(-c2cncnc2)c1 (single isomer, unassigned; 14) in the records?
**Result** 50

**Query** Which value of CLint scaled has been reported for O=C(Nc1ccc(OC(F)(F)F)cc1)c1ccc(OCCN2CCCC2)c(-c2cncnc2)c1 in the records?
**Result** 60

**Query** Which value of CLint scaled has been reported for COc1ccc(C(=O)Nc2ccc(OC(F)(F)F)cc2)cc1-c1cncnc1 in the records?
**Result** 16

**Query** Which value of CLint scaled has been reported for O=C(Nc1ccc(OC(F)(F)F)cc1)c1cnc(N2CCC(O)C2)c(-c2cncnc2)c1 (single isomer, unassigned; 7) in the records?
**Result** 40

**Query** Which value of CLint scaled has been reported for O=C(Nc1ccc(OC(F)(F)F)cc1)c1cccc(-c2cncnc2)c1 in the records?
**Result** 28
